- experimental system: NLPPp (Phytophthora nicotianae, UniProt Q9AT28)
- Construct: made in house; host or cells: Pichia pastoris
- Sequence (Q9AT28 20-237): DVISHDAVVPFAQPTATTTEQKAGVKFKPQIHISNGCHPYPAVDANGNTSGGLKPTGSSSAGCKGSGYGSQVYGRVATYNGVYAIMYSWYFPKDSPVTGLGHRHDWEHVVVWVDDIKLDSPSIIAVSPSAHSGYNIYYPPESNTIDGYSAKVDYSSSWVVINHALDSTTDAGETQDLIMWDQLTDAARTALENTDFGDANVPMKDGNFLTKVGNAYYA
- test protocol: Interactions of compounds with NLP proteins determined by surface plasmon resonance (NLPPp)
- Type: binding, Phytophthora parasitica
- recorded conditions: Biacore T100, CM5 chip, Steady State Affinity model; 50 mM MES, 140 mM NaCl, 5 % DMSO, pH 5,8; 25 °C; n=number of titrations
Each entry below carries its recorded Kd.
# unit: µM | format: bare number

// below: answered compounds
Cc1ccc(Nc2ccccc2C(=O)O)cc1 [IIb, 2-[(4-methylphenyl)amino]benzoic acid]    83.2
Cc1ccc(C)c(Nc2c(C(=O)O)cc([N+](=O)[O-])cc2[N+](=O)[O-])c1    39.7
COc1ccc(Nc2ccccc2C(=O)O)cc1 [Compound IIa, 2-[(4-methoxyphenyl)amino]benzoic acid]    71.9

Please look at the following compound next.
Sample O=C(O)c1ccccc1Nc1cccc(F)c1 ; Kd observed: 62.4

----------
- experimental system: NLPPya (Pythium aphanidermatum)
- Sequence (Q9SPD4 18-234 limits assumed): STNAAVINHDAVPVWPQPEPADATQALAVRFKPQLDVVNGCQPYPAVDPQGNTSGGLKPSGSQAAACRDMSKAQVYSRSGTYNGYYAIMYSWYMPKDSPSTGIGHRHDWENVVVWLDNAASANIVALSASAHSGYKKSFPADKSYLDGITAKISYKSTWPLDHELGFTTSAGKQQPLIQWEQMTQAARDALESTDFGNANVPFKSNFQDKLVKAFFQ
- test protocol: Interactions of compounds with NLP proteins determined by surface plasmon resonance (NLPPya)
- Type: binding
- recorded conditions: Biacore T100, CM5 chip, Steady State Affinity model; 50 mM MES, 140 mM NaCl, 5 % DMSO, pH 5,8; 25 °C; n=number of titrations
metric name: Kd (µM)
# unit: µM | format: bare number

// below: answered compounds
COc1ccc(Nc2ccccc2C(=O)O)cc1 [Compound IIa, 2-[(4-methoxyphenyl)amino]benzoic acid]    131
Cc1ccc(Nc2ccccc2C(=O)O)cc1 [IIb, 2-[(4-methylphenyl)amino]benzoic acid]    98

Please look at the following compound next.
The compound O=C(O)c1ccccc1Nc1cccc(F)c1 on NLPPya (Pythium aphanidermatum): Kd was 77.3
